# experimental.system: UniProtKB Q12866
# test.details: biochemical
pIC50: −log10 of the molar value.
metric: pIC50

> print(dat)
                         structure.notation  value.observed
1  NCC1(c2cc(-c3ccnc4[nH]ncc34)ccn2)Cc2ccccc2C1          > 6.30

----------
# experimental.system: c-Mer (Homo sapiens (Human), UniProt Q12866)
# Sequence (Q12866 21-999): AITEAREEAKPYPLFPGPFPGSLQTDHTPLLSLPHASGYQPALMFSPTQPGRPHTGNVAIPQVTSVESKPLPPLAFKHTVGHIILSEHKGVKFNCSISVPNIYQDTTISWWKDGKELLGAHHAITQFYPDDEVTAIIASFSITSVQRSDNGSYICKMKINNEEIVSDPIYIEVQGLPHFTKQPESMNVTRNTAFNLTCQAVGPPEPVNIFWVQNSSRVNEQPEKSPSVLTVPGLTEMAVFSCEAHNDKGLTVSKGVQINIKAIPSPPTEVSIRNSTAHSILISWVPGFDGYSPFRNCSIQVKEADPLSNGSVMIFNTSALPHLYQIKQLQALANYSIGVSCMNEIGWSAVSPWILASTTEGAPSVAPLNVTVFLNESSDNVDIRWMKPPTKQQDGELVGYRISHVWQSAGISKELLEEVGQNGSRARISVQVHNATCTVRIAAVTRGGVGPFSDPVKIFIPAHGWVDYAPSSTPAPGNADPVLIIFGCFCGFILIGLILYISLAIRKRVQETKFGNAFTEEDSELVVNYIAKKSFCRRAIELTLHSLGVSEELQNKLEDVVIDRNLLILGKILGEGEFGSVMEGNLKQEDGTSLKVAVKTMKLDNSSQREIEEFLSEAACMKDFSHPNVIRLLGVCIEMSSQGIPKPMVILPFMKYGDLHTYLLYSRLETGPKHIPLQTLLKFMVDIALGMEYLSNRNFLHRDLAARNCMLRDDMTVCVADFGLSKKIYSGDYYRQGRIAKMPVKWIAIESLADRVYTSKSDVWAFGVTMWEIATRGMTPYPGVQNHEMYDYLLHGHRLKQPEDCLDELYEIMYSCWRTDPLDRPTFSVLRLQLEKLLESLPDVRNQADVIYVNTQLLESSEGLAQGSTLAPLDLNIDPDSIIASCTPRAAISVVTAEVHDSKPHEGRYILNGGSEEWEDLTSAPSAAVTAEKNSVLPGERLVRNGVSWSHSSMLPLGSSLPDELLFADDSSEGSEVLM
# test.settings: read-out: c-Mer IC50; HTRF, 60 min room temperature
Entries and their measured IC50 follow.
metric: IC50

> print(dat)
                                   molecule                       experimental.system  value.observed
1  NCC1(c2cccc(-c3ncnc4[nH]ccc34)c2)Cc2ccc(N3CCCC(O)C3)cc2C1 (centres unmarked) [Example 58]  c-Mer (Homo sapiens (Human), UniProt Q12866)       > 3000 nM
2  Cn1cc(Nc2nc(-c3ccnc(C4(CN)Cc5ccccc5C4)c3)c3cc[nH]c3n2)cn1 [Example 94]  c-Mer (Homo sapiens (Human), UniProt Q12866)        < 500 nM
3  NCC1(c2cccc(-c3ncnc4[nH]ccc34)c2)CCc2ccccc2C1 (centres unmarked) [Example 99]  c-Mer (Homo sapiens (Human), UniProt Q12866)        < 500 nM
4  N#Cc1ccc2c(c1)CC(CN)(c1cccc(-c3ncnc4[nH]ccc34)c1)C2 (centres unmarked) [Example 49]  c-Mer (Homo sapiens (Human), UniProt Q12866)        < 500 nM
5  CC(C)Nc1nc(-c2cccc(C3(CN)Cc4ccccc4C3)c2)c2cc[nH]c2n1 [Example 88]  c-Mer (Homo sapiens (Human), UniProt Q12866)        < 500 nM
6  NCC1(c2cccc(-c3ncnc4[nH]ccc34)c2)Cc2ccc(CN3CCC3)cc2C1 (centres unmarked) [Example 46]  c-Mer (Homo sapiens (Human), UniProt Q12866)       > 3000 nM
7  NCC1(n2cc(-c3ncnc4[nH]ccc34)ccc2=O)Cc2ccccc2C1 [Example 100]  c-Mer (Homo sapiens (Human), UniProt Q12866)        < 500 nM
8  NCC1(c2cccc(-c3ncnc4[nH]ccc34)c2)Cc2ccc(-c3ccc(F)cc3)cc2C1 (centres unmarked) [Example 71]  c-Mer (Homo sapiens (Human), UniProt Q12866)       > 3000 nM

----------
# experimental.system: Phospho-Axl (Homo sapiens (Human))
# test.details: biochemical
# test.settings: HTRF, 60 min room temperature
pIC50: −log10 of the molar value.
Entries and their measured pIC50 follow.
metric: pIC50

> print(dat)
                                    molecule  value.observed
 1  O=C(NCCC1(c2cccc(-c3ncnc4[nH]ccc34)c2)Cc2ccccc2C1)C1CC1          > 6.30
 2  CNc1nc(-c2cccc(C3(CN)Cc4ccccc4C3)c2)c2cc[nH]c2n1          > 6.30
 3  CN(C)c1ccc(-c2ccc3c(c2)CC(CN)(c2cccc(-c4ncnc5[nH]ccc45)c2)C3)cc1 (centres unmarked)          > 6.30
 4  NCC1(c2cccc(-c3ncnc4[nH]ccc34)c2)Cc2ccc(CN3CCC[C@@H]3C(N)=O)cc2C1 (some centres unmarked)          < 5.52
 5  CC(C)Nc1nc(-c2cccc(C3(CN)Cc4ccccc4C3)c2)c2cc[nH]c2n1          > 6.30
 6  Cn1cc(Nc2nc(-c3ccnc(C4(CN)Cc5ccccc5C4)c3)c3cc[nH]c3n2)cn1          > 6.30
 7  N#Cc1ccc2c(c1)CC(CN)(c1cccc(-c3ncnc4[nH]ccc34)c1)C2 (centres unmarked)          > 6.30
 8  NCC1(c2cc(-c3ccnc4[nH]ncc34)ccn2)Cc2ccccc2C1          > 6.30
 9  NCC1(c2cccc(-c3nc(NC4CCCCC4)nc4[nH]ccc34)c2)Cc2ccccc2C1          > 6.30
10  CNC1CCN(c2ccc3c(c2)CC(CN)(c2cccc(-c4ncnc5[nH]ccc45)c2)C3)C1 (centres unmarked)          < 5.52
11  CCNc1nc(-c2cccc(C3(CN)Cc4ccccc4C3)c2)c2cc[nH]c2n1          > 6.30
12  CCCCNc1nc(-c2cccc(C3(CN)Cc4ccccc4C3)c2)c2cc[nH]c2n1          > 6.30
13  CC(O)C1CCN(c2ccc3c(c2)CC(CN)(c2cccc(-c4ncnc5[nH]ccc45)c2)C3)C1 (centres unmarked)          < 5.52
14  NCC1(c2cccc(-c3ncnc4[nH]ccc34)c2)Cc2ccc(CN3CC(O)C3)cc2C1 (centres unmarked)          < 5.52
15  NCCC1(c2cccc(-c3ncnc4[nH]ccc34)c2)Cc2ccccc2C1          > 6.30
16  NCC1(n2cc(-c3ncnc4[nH]ccc34)ccc2=O)Cc2ccccc2C1          > 6.30
17  CN(C)C1CCN(c2ccc3c(c2)CC(CN)(c2cccc(-c4ncnc5[nH]ccc45)c2)C3)C1 (centres unmarked)          < 5.52

----------
# experimental.system: c-Mer (Homo sapiens (Human))
# test.settings: read-out: c-Mer IC50; HTRF, 60 min room temperature
metric: IC50

> print(dat)
                                   compound           experimental.system  value.observed
1  NCC1(c2cccc(-c3ncnc4[nH]ccc34)c2)Cc2ccc(NC3CCOCC3)cc2C1 (stereo not drawn) [Example 60]  c-Mer (Homo sapiens (Human))       > 3000 nM
2  NCC1(c2cccc(-c3ncnc4[nH]ccc34)c2)Cc2ccc(-c3ccncc3)cc2C1 (stereo not drawn) [Example 78]  c-Mer (Homo sapiens (Human))       > 3000 nM
3  NCC1(c2cccc(-c3nc(NC4CCC4)nc4[nH]ccc34)c2)Cc2ccccc2C1 [Example 89]  c-Mer (Homo sapiens (Human))        < 500 nM
4  NCC1(c2cccc(-c3ncnc4[nH]ccc34)c2)Cc2ccc(-c3cccnc3)cc2C1 (stereo not drawn) [Example 77]  c-Mer (Homo sapiens (Human))       > 3000 nM
5  CCn1cnc(-c2ccc3c(c2)CC(CN)(c2cccc(-c4ncnc5[nH]ccc45)c2)C3)c1 (stereo not drawn) [Example 76]  c-Mer (Homo sapiens (Human))        < 500 nM
6  CNc1nc(-c2cccc(C3(CN)Cc4ccccc4C3)c2)c2cc[nH]c2n1 [Example 86]  c-Mer (Homo sapiens (Human))        < 500 nM

----------
Entries and their measured pIC50 follow.
# experimental.system: Tyro3 (Homo sapiens (Human), UniProt Q06418)
# Sequence (Q06418 41-890): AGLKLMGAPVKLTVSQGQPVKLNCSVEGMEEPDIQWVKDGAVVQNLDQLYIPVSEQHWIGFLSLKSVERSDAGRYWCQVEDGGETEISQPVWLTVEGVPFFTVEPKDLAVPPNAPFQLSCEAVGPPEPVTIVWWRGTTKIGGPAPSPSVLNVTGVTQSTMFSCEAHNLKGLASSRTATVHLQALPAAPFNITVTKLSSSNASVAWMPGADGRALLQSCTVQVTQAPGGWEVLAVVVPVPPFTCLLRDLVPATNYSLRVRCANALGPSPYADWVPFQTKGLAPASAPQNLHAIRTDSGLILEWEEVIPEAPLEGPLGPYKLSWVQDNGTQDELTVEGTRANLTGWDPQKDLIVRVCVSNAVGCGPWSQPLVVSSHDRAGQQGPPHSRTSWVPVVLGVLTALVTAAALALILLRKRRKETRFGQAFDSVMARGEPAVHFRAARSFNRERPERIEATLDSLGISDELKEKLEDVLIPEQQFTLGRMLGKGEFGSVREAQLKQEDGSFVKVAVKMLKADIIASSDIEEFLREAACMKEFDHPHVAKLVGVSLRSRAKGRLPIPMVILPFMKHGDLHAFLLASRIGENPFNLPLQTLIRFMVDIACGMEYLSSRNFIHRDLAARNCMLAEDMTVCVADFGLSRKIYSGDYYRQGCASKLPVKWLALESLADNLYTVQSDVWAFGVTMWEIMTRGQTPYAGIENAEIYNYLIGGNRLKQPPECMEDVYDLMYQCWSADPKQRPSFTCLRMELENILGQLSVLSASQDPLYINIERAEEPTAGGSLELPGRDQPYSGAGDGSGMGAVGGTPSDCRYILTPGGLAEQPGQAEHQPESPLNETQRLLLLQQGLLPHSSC
# test.details: biochemical
# test.settings: read-out: Tyro3IC50
pIC50: −log10 of the molar value.
metric: pIC50

> print(dat)
                                    compound  value.observed
 1  CN(C)C1CCN(c2ccc3c(c2)CC(CN)(c2cccc(-c4ncnc5[nH]ccc45)c2)C3)C1 (stereo not shown)          < 5.52
 2  CN(C)c1ccc(-c2ccc3c(c2)CC(CN)(c2cccc(-c4ncnc5[nH]ccc45)c2)C3)cc1 (stereo not shown)          > 6.30
 3  N#Cc1ccc2c(c1)CC(CNC(=O)C1CC1)(c1cccc(-c3ncnc4[nH]ccc34)c1)C2 (stereo not shown)          < 5.52
 4  NCC1(c2cccc(-c3ncnc4[nH]ccc34)c2)Cc2ccc(CNC3CC3)cc2C1 (stereo not shown)          < 5.52
 5  N#CCC1(c2cccc(-c3ncnc4[nH]ccc34)c2)Cc2ccccc2C1          < 5.52
 6  NCC1(c2cccc(-c3ncnc4[nH]ccc34)c2)Cc2ccc(-c3ccc4nccn4c3)cc2C1 (stereo not shown)          < 5.52
 7  NCCC1(c2cccc(-c3ncnc4[nH]ccc34)c2)Cc2ccccc2C1          < 5.52
 8  CC(C)C(=O)NCCC1(c2cccc(-c3ncnc4[nH]ccc34)c2)Cc2ccccc2C1          < 5.52
 9  Cn1cc(Nc2nc(-c3ccnc(C4(CN)Cc5ccccc5C4)c3)c3cc[nH]c3n2)cn1          > 6.30
10  Cc1cc2c(-c3cccc(C4(CN)Cc5ccccc5C4)c3)ncnc2[nH]1          < 5.52
11  COCCCNc1ccc2c(c1)CC(CN)(c1cccc(-c3ncnc4[nH]ccc34)c1)C2 (stereo not shown)          < 5.52
12  CNC1CCN(c2ccc3c(c2)CC(CN)(c2cccc(-c4ncnc5[nH]ccc45)c2)C3)C1 (stereo not shown)          < 5.52
13  COc1cnc2[nH]ccc2c1-c1ccnc(C2(CN)Cc3ccccc3C2)c1          > 6.30

----------
# experimental.system: Phospho-Axl (Homo sapiens (Human), UniProt P30530);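 note: test system is recombinant Axl protein that was first autophosphorylated with ATP and MgCl2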
# Sequence (P30530 26-894): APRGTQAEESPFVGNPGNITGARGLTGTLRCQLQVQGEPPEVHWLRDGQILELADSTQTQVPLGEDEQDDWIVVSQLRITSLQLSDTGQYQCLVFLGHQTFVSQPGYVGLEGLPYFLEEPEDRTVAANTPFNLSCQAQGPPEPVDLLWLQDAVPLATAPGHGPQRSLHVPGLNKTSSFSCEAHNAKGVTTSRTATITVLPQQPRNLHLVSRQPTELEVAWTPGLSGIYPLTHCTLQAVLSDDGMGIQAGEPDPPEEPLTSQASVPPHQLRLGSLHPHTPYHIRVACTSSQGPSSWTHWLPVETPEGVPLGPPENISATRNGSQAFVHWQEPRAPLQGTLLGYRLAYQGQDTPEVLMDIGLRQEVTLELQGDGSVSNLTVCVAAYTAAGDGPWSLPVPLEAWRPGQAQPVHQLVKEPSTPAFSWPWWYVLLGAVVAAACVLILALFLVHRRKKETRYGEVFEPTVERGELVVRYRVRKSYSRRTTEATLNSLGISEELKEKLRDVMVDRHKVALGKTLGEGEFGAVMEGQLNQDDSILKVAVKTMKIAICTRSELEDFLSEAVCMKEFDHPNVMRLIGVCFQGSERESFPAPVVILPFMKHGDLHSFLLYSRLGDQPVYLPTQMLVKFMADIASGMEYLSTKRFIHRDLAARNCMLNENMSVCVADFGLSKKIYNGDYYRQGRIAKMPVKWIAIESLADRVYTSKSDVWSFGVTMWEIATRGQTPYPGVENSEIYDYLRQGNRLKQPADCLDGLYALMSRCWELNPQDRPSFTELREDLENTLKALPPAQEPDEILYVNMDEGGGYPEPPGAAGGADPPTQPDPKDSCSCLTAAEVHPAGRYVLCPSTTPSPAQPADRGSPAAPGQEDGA
# test.details: biochemical
# test.settings: HTRF, 60 min room temperature
pIC50: −log10 of the molar value.
Entries and their measured pIC50 follow.
metric: pIC50

> print(dat)
                                   molecule                       experimental.system  metric  value.observed
1  NCC1(c2cccc(-c3nc(NC4CCC4)nc4[nH]ccc34)c2)Cc2ccccc2C1 [Example 89]  Phospho-Axl (Homo sapiens (Human), UniProt P30530)   pIC50          > 6.30
2  Cn1nccc1C(=O)NCC1(c2cccc(-c3ncnc4[nH]ccc34)c2)Cc2ccccc2C1 [Example 32]  Phospho-Axl (Homo sapiens (Human), UniProt P30530)   pIC50          < 5.52
3  NCC1(c2cccc(-c3ncnc4[nH]ccc34)c2)Cc2ccc(-c3ccc(N4CCCC4)nc3)cc2C1 (stereo not drawn) [Example 75]  Phospho-Axl (Homo sapiens (Human), UniProt P30530)   pIC50          > 6.30
4  NCC1(c2cc(-c3nc(Nc4cccc(CN5CCOCC5)c4)nc4[nH]ccc34)ccn2)Cc2ccccc2C1 [Example 95]  Phospho-Axl (Homo sapiens (Human), UniProt P30530)   pIC50          > 6.30
5  NCC1(c2cccc(-c3ncnc4[nH]ccc34)c2)Cc2ccc(N3CC(F)C3)cc2C1 (stereo not drawn) [Example 56]  Phospho-Axl (Homo sapiens (Human), UniProt P30530)   pIC50          > 6.30
6  NCC1(c2cccc(-c3nc(NC4CCCC4)nc4[nH]ccc34)c2)Cc2ccccc2C1 [Example 90]  Phospho-Axl (Homo sapiens (Human), UniProt P30530)   pIC50          > 6.30
